Source listed as paper PMC7364574.

experimental-system: c-Met kinase (Homo sapiens)
Sequence (P08581 25-1390): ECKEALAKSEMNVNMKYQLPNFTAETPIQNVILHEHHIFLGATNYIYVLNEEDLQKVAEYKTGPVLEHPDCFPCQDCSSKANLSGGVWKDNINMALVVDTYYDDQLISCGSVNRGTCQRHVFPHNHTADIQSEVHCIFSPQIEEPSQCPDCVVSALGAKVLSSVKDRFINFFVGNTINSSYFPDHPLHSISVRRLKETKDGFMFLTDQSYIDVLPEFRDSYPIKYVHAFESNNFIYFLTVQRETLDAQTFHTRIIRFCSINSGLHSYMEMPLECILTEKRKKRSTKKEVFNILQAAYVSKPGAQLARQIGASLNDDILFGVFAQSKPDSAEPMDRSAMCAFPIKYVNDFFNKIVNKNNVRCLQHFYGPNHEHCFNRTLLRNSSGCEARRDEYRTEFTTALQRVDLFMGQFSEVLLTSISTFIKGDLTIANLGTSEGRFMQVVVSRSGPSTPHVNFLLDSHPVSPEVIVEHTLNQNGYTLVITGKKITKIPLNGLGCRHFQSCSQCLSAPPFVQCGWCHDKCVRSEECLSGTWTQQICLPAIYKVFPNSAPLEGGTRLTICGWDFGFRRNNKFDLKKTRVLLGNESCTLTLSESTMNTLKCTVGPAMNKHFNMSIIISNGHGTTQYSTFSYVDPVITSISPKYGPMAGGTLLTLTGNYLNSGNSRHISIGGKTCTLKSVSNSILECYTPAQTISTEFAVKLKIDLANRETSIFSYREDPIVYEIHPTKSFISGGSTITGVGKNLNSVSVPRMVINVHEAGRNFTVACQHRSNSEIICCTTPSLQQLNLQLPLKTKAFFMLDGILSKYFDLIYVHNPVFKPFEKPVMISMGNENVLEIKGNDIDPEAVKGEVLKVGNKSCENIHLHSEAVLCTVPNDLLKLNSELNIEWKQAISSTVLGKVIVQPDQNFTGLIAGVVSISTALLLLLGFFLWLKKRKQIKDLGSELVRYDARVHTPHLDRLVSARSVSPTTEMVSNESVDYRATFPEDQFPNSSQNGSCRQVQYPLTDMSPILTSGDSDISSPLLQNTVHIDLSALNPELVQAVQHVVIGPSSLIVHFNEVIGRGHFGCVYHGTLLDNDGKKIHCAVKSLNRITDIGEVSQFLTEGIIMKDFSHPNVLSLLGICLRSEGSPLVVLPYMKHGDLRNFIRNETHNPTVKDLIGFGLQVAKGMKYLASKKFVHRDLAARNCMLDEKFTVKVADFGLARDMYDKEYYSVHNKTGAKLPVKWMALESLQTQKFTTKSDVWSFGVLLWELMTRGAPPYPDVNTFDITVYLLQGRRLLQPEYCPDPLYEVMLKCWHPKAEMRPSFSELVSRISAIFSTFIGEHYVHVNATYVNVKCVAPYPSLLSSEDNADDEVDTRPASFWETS
assay-summary: c-Met tyrosine kinase mobility shift assay
Assay type: biochemical
condition-info: IC50 (μM) c-Met
Consider the following compounds; for each one, report its IC50.

Prompt line: Consider the compound Cc1cc(Oc2ccc(NC(=O)c3cnn(-c4ccc(Cl)cc4)c3C(F)(F)F)cc2F)c2nncn2n1 [13b] . State its measured IC50.
Response line: 0.09 to 0.21 µM

Prompt line: Consider the compound Cc1cc(Oc2ccc(NC(=O)c3sc(-c4ccccn4)nc3C)cc2)c2nncn2n1 [12e] . State its measured IC50.
Response line: 0.09 to 0.21 µM
